Below, each entry is listed alongside its reported melting point.

smiles_representation | endpoint_unit | melting point
Cc1nc(/C(C#N)=C/c2ccc(N(C)C)cc2)sc1/N=N/c1ccc(F)cc1 | °C | 149
Cc1cc(N=O)ccc1N=O | °C | 137
CC(=O)NCc1ccccc1C(c1ccc(C)o1)c1ccc(C)o1 | °C | 65
CCC1(CC)C(=O)NC(=S)NC1=O | °C | 180

###

Below, each entry is listed alongside its reported melting point.

compound | melting point (°C)
FC(F)(F)N1C(F)(F)C(F)(F)OC(F)(F)C1(F)F | -80
NC(CCS)C(=O)O (stereo not drawn) | 232
O=C(Oc1cccc2cccnc12)c1ccccc1 | 119
COc1c(F)cc(N)cc1Br | 72
Cc1ccc(C)c2c1C(=O)OC2=O | 195
Fc1nc(F)c(Cl)c(F)c1Cl | 25
O=C1CNC(=S)N1 | 230
CC(O)c1ccc(N)cc1 (stereo not drawn) | 70
